# Target system: Hepatocyte nuclear factor 6 (Homo sapiens) (UniProt Q9UBC0)
# Sequence (Q9UBC0 whole entry, looked up): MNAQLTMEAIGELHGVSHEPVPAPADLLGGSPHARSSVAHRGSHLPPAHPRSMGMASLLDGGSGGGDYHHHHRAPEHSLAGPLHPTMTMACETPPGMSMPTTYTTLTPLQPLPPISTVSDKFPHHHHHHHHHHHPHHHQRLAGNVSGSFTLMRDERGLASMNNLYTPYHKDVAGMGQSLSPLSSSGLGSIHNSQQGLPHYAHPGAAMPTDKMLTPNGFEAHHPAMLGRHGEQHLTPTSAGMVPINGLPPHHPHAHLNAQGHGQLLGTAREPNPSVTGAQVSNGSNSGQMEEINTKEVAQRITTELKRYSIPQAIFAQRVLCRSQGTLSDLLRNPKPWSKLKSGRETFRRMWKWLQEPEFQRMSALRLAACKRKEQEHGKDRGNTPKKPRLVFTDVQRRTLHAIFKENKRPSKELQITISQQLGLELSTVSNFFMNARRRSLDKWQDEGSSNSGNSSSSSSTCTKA
# Test name: ATG_HNF6_CIS: Attagene CIS-FACTORIAL HepG2 Assay for human Hepatocyte Nuclear Factor 6 (HNF6) (AID 2282952)
# Test context: HepG2 Attagene cis-factorial HNF6 reporter transcription; actives raise or lower the signal
The source made the active and inactive calls. How the source made its calls: active means hit-call score of the fitted dose curve at least 0.9, where 1 is the maximum; inactive means score below 0.9.
Possible outcomes: active, inactive

INSERT INTO assay_data (compound, class_label) VALUES
  ('CCC(C)(CC)c1cc(NC(=O)c2c(OC)cccc2OC)on1', 'inactive'),
  ('C=CC(=O)NCNC(=O)C=C', 'inactive'),
  ('ClC(Cl)=C(c1ccc(Cl)cc1)c1ccc(Cl)cc1', 'inactive'),
  ('ClC1=C(Cl)[C@]2(Cl)[C@@H]3[C@@H]4C[C@@H]([C@H]5O[C@@H]45)[C@@H]3[C@@]1(Cl)C2(Cl)Cl', 'inactive'),
  ('ClC1=C(Cl)[C@]2(Cl)[C@@H]3[C@H]4C[C@H]([C@@H]5O[C@H]45)[C@@H]3[C@@]1(Cl)C2(Cl)Cl', 'inactive'),
  ('Clc1ccc(C(c2ccccc2Cl)C(Cl)(Cl)Cl)cc1 (configuration not stated)', 'inactive'),
  ('Cc1cccc([N+](=O)[O-])c1', 'inactive'),
  ('O=S(=O)(O)C(F)(F)C(F)(F)C(F)(F)C(F)(F)C(F)(F)C(F)(F)F', 'inactive'),
  ('CCCCCCCCCC[N+](C)(C)CCCCCCCCCC', 'inactive'),
  ('CCOCCOC(C)=O', 'inactive'),
  ('C1CC2OC2CC1C1CO1 (configuration not stated)', 'inactive'),
  ('CCC(C)c1cc([N+](=O)[O-])cc([N+](=O)[O-])c1O (configuration not stated)', 'inactive'),
  ('CC#Cc1cc(C)nc(Nc2ccccc2)n1', 'inactive'),
  ('CC(c1ccc(O)cc1)(c1ccc(O)cc1)c1ccc(O)cc1', 'active'),
  ('Cc1cc(-c2ccc(N)c(C)c2)ccc1N', 'inactive'),
  ('ClC1=C(Cl)[C@]2(Cl)[C@@H]3[C@@H](Cl)[C@H]4O[C@H]4[C@@H]3C1(Cl)C2(Cl)Cl', 'inactive'),
  ('O=C(NC(=O)c1cc(F)c(F)cc1Cl)Nc1cc(F)ccc1N1CCC(C(=O)O)CC1', 'inactive');

---

# Read-out: Broad substrate specificity ATP-binding cassette transporter ABCG2 (Homo sapiens)
# Test name: LTEA_HepaRG_ABCG2: Life Technologies and Expression Analysis (LTEA) Assay for ABC Transporter (ABCG2) using HepaRG (AID 2283465)
# Test context: mRNA level, 48 h; actives raise or lower the signal
The source made the active and inactive calls. Rule for the calls: active = hit-call score of the fitted dose curve at least 0.9, where 1 is the maximum; inactive = score below 0.9.
Experimental readout: AC50

INSERT INTO results (compound, experimental_readout, result_value) VALUES
  ('C[C@]12CCC(=O)C=C1CC[C@@H]1[C@@H]2CC[C@]2(C)C(=O)CC[C@@H]12', 'AC50', '19.7 µM (active)'),
  ('Clc1ccc(Cl)cc1', 'AC50', 'inactive'),
  ('Cc1cc(O)ccc1Cl', 'AC50', 'inactive'),
  ('ClC1=C(Cl)[C@]2(Cl)[C@@H]3[C@H]4C[C@H]([C@@H]5O[C@H]45)[C@@H]3[C@@]1(Cl)C2(Cl)Cl', 'AC50', '6.76 µM (active)'),
  ('COS(=O)(=O)OC', 'AC50', 'inactive'),
  ('N#Cc1ccc(N(CC(N)=O)CC(F)(F)F)cc1C(F)(F)F', 'AC50', 'inactive'),
  ('O=S(=O)(O)C(F)(F)C(F)(F)C(F)(F)C(F)(F)C(F)(F)C(F)(F)F', 'AC50', 'inactive'),
  ('Cc1ccccc1[N+](=O)[O-]', 'AC50', 'inactive'),
  ('NS(=O)(=O)C(F)(F)C(F)(F)C(F)(F)C(F)(F)C(F)(F)C(F)(F)C(F)(F)C(F)(F)F', 'AC50', '3.42 µM (active)'),
  ('C[C@]12CCC(=O)C=C1CC[C@@H]1[C@@H]2CC[C@@]2(C)[C@H]1CC[C@]2(C)O', 'AC50', '9.08 µM (active)'),
  ('Cc1cccc([N+](=O)[O-])c1', 'AC50', 'inactive'),
  ('CCNc1nc(NC(C)C)nc(SC)n1', 'AC50', 'inactive'),
  ('Cc1cc2c3c(c1)C(c1ccccc1)=N[C@@H](NC(=O)c1ccncc1)C(=O)N3CC2', 'AC50', '10.1 µM (active)'),
  ('ClC1=C(Cl)[C@]2(Cl)[C@@H]3[C@@H]4C[C@@H]([C@H]5O[C@@H]45)[C@@H]3[C@@]1(Cl)C2(Cl)Cl', 'AC50', '20.8 µM (active)'),
  ('C=CC(=O)NCNC(=O)C=C', 'AC50', 'inactive'),
  ('CCCCCCCCCC[N+](C)(C)CCCCCCCCCC', 'AC50', '72.8 µM (active)'),
  ('CCCCCCCCCc1ccc(O)cc1', 'AC50', 'inactive'),
  ('CCC(C)(c1ccc(O)cc1)c1ccc(O)cc1', 'AC50', 'inactive'),
  ('Cc1ccccc1CO[C@@H]1C[C@@]2(C(C)C)CC[C@]1(C)O2', 'AC50', 'inactive'),
  ('Oc1ccc(C(c2ccc(O)cc2)(C(F)(F)F)C(F)(F)F)cc1', 'AC50', 'inactive'),
  ('CC(C)C(=O)OCC(C)(C)C(OC(=O)C(C)C)C(C)C (stereo not given)', 'AC50', 'inactive'),
  ('COc1ccc(O)c(C(C)(C)C)c1', 'AC50', 'inactive'),
  ('CCOC(=O)C(O)(c1ccc(Cl)cc1)c1ccc(Cl)cc1', 'AC50', 'inactive'),
  ('c1ccc(-c2ccccc2)cc1', 'AC50', 'inactive'),
  ('O=C(O)C(F)(F)C(F)(F)C(F)(F)C(F)(F)C(F)(F)C(F)(F)C(F)(F)C(F)(F)C(F)(F)F', 'AC50', 'inactive'),
  ('CN(C)c1nc(=O)n(C2CCCCC2)c(=O)n1C', 'AC50', 'inactive'),
  ('ClC(Cl)=C(c1ccc(Cl)cc1)c1ccc(Cl)cc1', 'AC50', '8.74 µM (active)'),
  ('CC(C)(O)C(=O)Nc1ccc([N+](=O)[O-])c(C(F)(F)F)c1', 'AC50', 'inactive'),
  ('CCOP(=S)(OCC)SCSC(C)(C)C', 'AC50', 'inactive'),
  ('CC(c1ccc(O)cc1)(c1ccc(O)cc1)c1ccc(O)cc1', 'AC50', '33.8 µM (active)'),
  ('O=C(O)C(F)(F)C(F)(F)C(F)(F)C(F)(F)C(F)(F)C(F)(F)C(F)(F)C(F)(F)F', 'AC50', '50 µM (active)'),
  ('CC#Cc1cc(C)nc(Nc2ccccc2)n1', 'AC50', '29.9 µM (active)'),
  ('Cc1ccccc1O', 'AC50', 'inactive'),
  ('C1CC2OC2CC1C1CO1 (stereo not given)', 'AC50', 'inactive'),
  ('CCSC(=O)N(CC)C1CCCCC1', 'AC50', 'inactive'),
  ('C=CC(N)=O', 'AC50', 'inactive'),
  ('O=C(NC(=O)c1cc(F)c(F)cc1Cl)Nc1cc(F)ccc1N1CCC(C(=O)O)CC1', 'AC50', 'inactive'),
  ('Nn1cnnc1', 'AC50', 'inactive'),
  ('O=S(=O)(O)C(F)(F)C(F)(F)C(F)(F)C(F)(F)F', 'AC50', 'inactive'),
  ('CC1=C2C[C@H]3[C@@H](CC=C4C[C@@H](O)CC[C@@]43C)[C@@H]2CC[C@]12O[C@@H]1C[C@H](C)CN[C@H]1[C@H]2C', 'AC50', '12.1 µM (active)');

---

# Read-out: Cytochrome P450 (CYP1A1), CYP1A1 (gene 1543)
# Test name: LTEA_HepaRG_CYP1A1: Life Technologies and Expression Analysis (LTEA) Assay for Cytochrome P450 (CYP1A1) using HepaRG (AID 2283454)
# Test context: mRNA level, 48 h; actives raise or lower the signal
Activity calls are given as the source filed them. How the source made its calls: active means hit-call score of the fitted dose curve at least 0.9, where 1 is the maximum; inactive means score below 0.9.
Experimental readout: AC50

INSERT INTO assay_data (structure_string, experimental_readout, result_value) VALUES
  ('O=C(O)C(F)(F)C(F)(F)C(F)(F)C(F)(F)C(F)(F)C(F)(F)C(F)(F)C(F)(F)C(F)(F)F', 'AC50', 'inactive'),
  ('CCSC(=O)N(CC)C1CCCCC1', 'AC50', 'inactive'),
  ('ClC1=C(Cl)[C@]2(Cl)[C@@H]3[C@H]4C[C@H]([C@@H]5O[C@H]45)[C@@H]3[C@@]1(Cl)C2(Cl)Cl', 'AC50', 'inactive'),
  ('CC(c1ccc(O)cc1)(c1ccc(O)cc1)c1ccc(O)cc1', 'AC50', '15.8 µM (active)'),
  ('c1ccc(-c2ccccc2)cc1', 'AC50', 'inactive'),
  ('c1cc2ccc3cccc4ccc(c1)c2c34', 'AC50', '24.3 µM (active)');
